From: patent US10730874B2

Target: human activated kallikrein enzyme (plasma kallikrein) (Homo sapiens (Human), UniProt P03952)
Sequence (P03952 391-638): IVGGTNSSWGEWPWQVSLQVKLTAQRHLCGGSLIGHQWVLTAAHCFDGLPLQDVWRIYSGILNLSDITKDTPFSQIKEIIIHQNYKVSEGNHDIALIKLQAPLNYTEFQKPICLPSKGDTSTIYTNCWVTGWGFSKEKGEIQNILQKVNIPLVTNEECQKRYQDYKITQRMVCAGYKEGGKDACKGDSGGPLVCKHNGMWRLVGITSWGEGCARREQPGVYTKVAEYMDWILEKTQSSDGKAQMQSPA
Sequence (P03952 20-390 partner): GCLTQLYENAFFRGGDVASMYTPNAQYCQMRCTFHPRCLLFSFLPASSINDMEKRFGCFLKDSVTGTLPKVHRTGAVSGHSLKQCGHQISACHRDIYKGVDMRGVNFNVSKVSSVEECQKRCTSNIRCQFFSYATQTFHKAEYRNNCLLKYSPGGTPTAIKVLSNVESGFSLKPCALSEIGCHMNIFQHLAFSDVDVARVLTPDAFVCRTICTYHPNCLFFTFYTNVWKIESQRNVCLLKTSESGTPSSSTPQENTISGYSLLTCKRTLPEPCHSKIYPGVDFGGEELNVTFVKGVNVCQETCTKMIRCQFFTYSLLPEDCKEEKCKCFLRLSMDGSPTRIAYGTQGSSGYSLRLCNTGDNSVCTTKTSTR
Assay: Inhibition of human activated plasma kallikrein, fluorogenic peptide substrate assay, 500 pM enzyme format
Assay type: biochemical
Conditions: 500 pM activated kallikrein enzyme, 300 uM Pro-Phe-Arg-7-amido-4-methylcoumarin substrate, 30 min preincubation, 10 min at RT; read-out: Primary Dose Response Assay: Average EC50
pEC50: −log10 of the molar value.
We begin with a simple list: items and their reported pEC50.

Problem: Answer with the recorded pEC50 of `CCc1c(Cl)ccc2nc(Cn3cc(C(=O)NCc4ncn5ccc(Cl)cc45)cn3)cn12` only.
Result: 7.00 to 8.00

Problem: Please give measured pEC50 of the following entry: `O=C(NCc1ncn2ccc(Cl)cc12)c1cnn(Cc2cn3cc(C4CC4)ccc3n2)n1`
Result: > 9.00

----------
Target: human activated kallikrein enzyme (plasma kallikrein) (Homo sapiens (Human), UniProt P03952)
Assay: Inhibition of human activated plasma kallikrein, fluorogenic peptide substrate assay, 500 pM enzyme format
Assay type: biochemical
Conditions: 500 pM activated kallikrein enzyme, 300 uM Pro-Phe-Arg-7-amido-4-methylcoumarin substrate, 30 min preincubation, 10 min at RT; read-out: Primary Dose Response Assay: Average EC50
parameter: EC50

Example entries begin here.
[[record]]
entrysmiles = "COCCc1cc(C2CC2)cn2cc(Cn3cc(C(=O)NCc4ncn5ccc(Cl)cc45)cn3)nc12"
parameter = "EC50"
val = "< 1 nM"

[[record]]
entrysmiles = "O=C(NCc1ncn2ccc(Cl)c(F)c12)c1cn(Cc2cn3cc(C4CC4)cc(-n4cn[nH]c(=O)c4=O)c3n2)nn1"
parameter = "EC50"
val = "< 1 nM"

[[record]]
entrysmiles = "Cc1nnc(C)n1-c1cc(C2CC2)cn2cc(Cn3cc(C(=O)NCc4ncn5ccc(Cl)c(F)c45)nn3)nc12"
parameter = "EC50"
val = "< 1 nM"

[[record]]
entrysmiles = "N#Cc1cc(C2CC2)cn2cc(Cn3cc(C(=O)NCc4ncn5ccc(Cl)cc45)cn3)nc12"
parameter = "EC50"
val = "< 1 nM"

[[record]]
entrysmiles = "Nc1c(C2CC2)ccc2nc(Cn3cc(C(=O)NCc4ncn5ccc(Cl)cc45)cn3)cn12"
parameter = "EC50"
val = "1 to 10 nM"


Problem: Give reported EC50 value for `O=C(NCc1ncn2ccc(Cl)c(F)c12)c1cn(Cc2cc3ccc(C4CC4)cc3s2)nn1`
Result: 10 to 100 nM

Problem: Look up and report measured EC50 for this entry: `O=C(NCc1ncn2ccc(Cl)c(F)c12)c1cnn(Cc2cn3cc(C4CC4)ccc3n2)c1`
Result: < 1 nM

----------
Parameter: EC50. Scope: all listed entries.
Molecular target: human activated kallikrein enzyme (plasma kallikrein) (Homo sapiens (Human))
Assay: Inhibition of human activated plasma kallikrein, fluorogenic peptide substrate assay, 500 pM enzyme format
Assay type: biochemical
Settings: 500 pM activated kallikrein enzyme, 300 uM Pro-Phe-Arg-7-amido-4-methylcoumarin substrate, 30 min preincubation, 10 min at RT; read-out: Primary Dose Response Assay: Average EC50

[[record]]
compound = "O=C(NCc1ncn2ccc(Br)cc12)c1cnn(Cc2cn3cc(Br)c(Cl)cc3n2)c1 [Example I-37]"
parameter = "EC50"
val = "10 to 100 nM"


Problem: Fetch value of EC50 on human activated kallikrein enzyme (plasma kallikrein) (Homo sapiens (Human)) for CC(NC(=O)c1cnn(Cc2cn3cc(C4CC4)ccc3n2)c1)c1ncn2ccc(Br)cc12 (centres unmarked) [Example I-74] .
Result: 1 to 10 nM

Problem: For human activated kallikrein enzyme (plasma kallikrein) (Homo sapiens (Human)), give the measured EC50 of the entry O=C(NCc1ncn2ccc(Br)cc12)c1cnn(Cc2cn3nc(C4CC4)ccc3n2)c1 [Example I-68]
Result: < 1 nM

Problem: Provide EC50, tested on human activated kallikrein enzyme (plasma kallikrein) (Homo sapiens (Human)), for N#CNC(=NCc1ncn2ccc(Cl)cc12)c1cnn(Cc2cn3cc(C4CC4)ccc3n2)c1 [Example I-123] .
Result: 1 to 10 nM
